Parameter: folding stability dG. Scope: all listed entries.
B1: HEEH_KT_rd6_3632 (parent)
chain: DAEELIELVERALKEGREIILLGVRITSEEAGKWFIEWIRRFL

variants of: B1; experiment: folding stability dG (cDNA display proteolysis); higher = more stable; conditions: PBS, room temperature
The reply should be a number in kcal/mol, with the unit left off.

Sample G32A — what was its folding stability dG? 4.05

Sample W38A — what was its folding stability dG? 2.95

Sample I39W — what was its folding stability dG? 3.23

Others:
Sample L5Y — what was its folding stability dG? 3.47

Sample V9A — what was its folding stability dG? 3.19
